FYI, the data here is from PubChem BioAssay (Tox21).

Experiment: qHTS RealTime-Glo MT Cell Viability Assay in HEK293 cells - 40 hour (AID 1224874); further: on the % scale 0 is the no-effect control and ±100 the full control effect
Conditions: RealTime-Glo luminescence; stronger effect = lower value
Excerpt: U.S. Tox21 Program National Center for Advancing Translational Sciences [NCATS] NIH Chemical Genomics Center [NCGC] U.S. Environmental Protection Agency [EPA] National Institutes of Environmental Health Sciences [NIEHS] National Toxicology Program [NTP] U.S. Food and Drug Administration [FDA] Tox21 Assay Overview: Measure of cell viability is critical in the cell-base assay. Analysis of cell viability is necessary for the characterization of cell responses to cytotoxic drugs and environmental stress. […]
Inconclusive results are not listed.
MEASURED PARAMETER: max response (%)
Note: unit % is implicit; provide only the numeric part.

ClCCl
10.5
c1cnccn1
2.57
O=C1CCCCCCCCCCCCCCCO1
4
CC(=O)CC(=O)Nc1ccc(S(=O)(=O)O)cc1
0.915
O=C(O)O
-2.54
C=CCCC(=O)/C=C/C1C(C)=CCCC1(C)C (stereo not given)
-12.7

// lookup max response for CCCCCCCCCCOC(=O)c1ccccc1C(=O)OCCCCCCCC
1.51

// lookup max response for Cc1cc(C(C)(C)C)cc(C)c1CC1=NCCN1
-8.22

// lookup max response for Clc1ccnc(Cl)n1
11.8

// lookup max response for Cl[Si](Cl)(c1ccccc1)c1ccccc1
-3.91

// lookup max response for CCOc1ccc2ccccc2c1C(=O)N[C@@H]1C(=O)N2[C@@H]1SC(C)(C)[C@@H]2C(=O)O
1.12

// lookup max response for O=C(O)c1cc(N=Nc2ccc([N+](=O)[O-])cc2)ccc1O
-17

// lookup max response for CCCC(=O)OCCc1ccccc1
5.68

// lookup max response for CC(CCc1ccccc1)NCC(O)c1ccc(O)c(C(N)=O)c1 (stereo not given)
0.74

// lookup max response for Cc1cccc(C(=O)O)c1O
6.77

// lookup max response for CCC(COC(=O)CCS)(COC(=O)CCS)COC(=O)CCS
0.669
